For each entry below, report its growth AUC normalised to DMSO control value.
- System: S. enterica typhimurium WT;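 also: active when median AUC fell below 0.1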
- protocol: growth AUC normalised to DMSO control (median) (fraction of control); higher = less growth inhibition, active = hit call of the paper
- setup conditions: 20 µM
Where a name gives a salt, the structure may show the parent alone.

I have this compound here, NCCc1cc[nH]n1 [Betazole hydrochloride] , and I need its recorded growth AUC normalised to DMSO control.
1 (inactive)

Note, next up: Nc1c2c(nc3ccccc13)CCCC2 [Tacrine hydrochloride]
0.986 (inactive)

Same thing, different compound: Cc1nc(C)c(Cl)c(O)c1Cl
1.01 (inactive)

Query CCN[C@@H]1C[C@H](N)[C@@H](O[C@H]2OC(CN)=CC[C@H]2N)[C@H](O)[C@H]1O[C@H]1OC[C@](C)(O)[C@H](NC)[C@H]1O [Netilmicin sulfate] next
0.996 (inactive)

And then C#C[C@]1(O)CC[C@H]2[C@@H]3CCC4=Cc5oncc5C[C@]4(C)[C@H]3CC[C@@]21C , what is it?
1 (inactive)

What would you report for CCS(=O)(=O)CCn1c([N+](=O)[O-])cnc1C ?
1 (inactive)

What do you have for COc1ccc(CNc2nc(N3CCC[C@H]3CO)ncc2C(=O)NCc2ncccn2)cc1Cl ?
1.01 (inactive)

Also, CCCSc1nc(N[C@@H]2C[C@H]2c2ccc(F)c(F)c2)c2nnn([C@@H]3C[C@H](OCCO)[C@@H](O)[C@H]3O)c2n1 please.
1.03 (inactive)

* * *

Assign growth AUC normalised to DMSO control to each entry below.
- Tested on: Yersinia pseudotuberculosis
- protocol: growth AUC normalised to DMSO control (fraction of control); higher = less growth inhibition, active = hit call of the paper
- setup conditions: 20 µM
Counter-ions that a name gives are not always drawn.
# output: bare number, no unit

// query growth AUC normalised to DMSO control value for entry CC1(C)[C@@H](OC(=O)CCC(=O)O)CC[C@]2(C)[C@H]3C(=O)C=C4[C@@H]5C[C@@](C)(C(=O)O)CC[C@]5(C)CC[C@@]4(C)[C@]3(C)CC[C@@H]12 [Carbenoxolone disodium salt]
0.978

And what about the molecule CO/N=C(\C(=O)N[C@@H]1C(=O)N2C(C(=O)O)=C(COC(N)=O)CS[C@H]12)c1ccco1 [Cefuroxime sodium salt] ?
0.0424

// repeat for CCCN(CCC)CCc1cccc2c1CC(=O)N2 [Ropinirole hydrochloride] and report
0.985

Also need CCN(CC)CCOC(=O)C1(c2ccc([N+](=O)[O-])cc2)CCCC1 [Nitrocaramiphen hydrochloride] , thanks.
0.996

What do you have for CN1CCN(CCCN2c3ccccc3Sc3ccc(Cl)cc32)CC1 [Prochlorperazine dimaleate] ?
1

Same again, this time with CC(C)NNC(=O)c1ccncc1 [Iproniazide phosphate]
1.02

Please give the result for CC(C(=O)O)c1ccc(N2Cc3ccccc3C2=O)cc1 (stereo not drawn) [Indoprofen] too.
1.01

What do you get for COC(=O)C1=C(C)NC(C)=C(C(=O)OC)C1c1ccccc1[N+](=O)[O-] [Nifedipine] ?
1

* * *

I'd be grateful if you could share measured growth AUC normalised to DMSO control for these entries.
- System: Shigella flexneri
- protocol: growth AUC normalised to DMSO control (fraction of control); higher = less growth inhibition, active = hit call of the paper
- setup conditions: 20 µM
Structures can show the parent of a compound that is named as a salt.
Lab note: jot down the number only; don't add units.

Quick one: growth AUC normalised to DMSO control of CC(C)NC[C@@H](O)COc1cccc2ccccc12 [(R) Propranolol hydrochloride] ?
1.02

What about this molecule? Cc1cc(CC(=O)O)n(C)c1C(=O)c1ccc(Cl)cc1 [Zomepirac sodium salt]
1

Likewise for CC(C)[C@H](N)C(=O)OCCOCn1cnc2c(=O)nc(N)[nH]c21 [Valacyclovir hydrochloride] ?
1.03

Thanks! And Nc1nc(=O)[nH]cc1F [Flucytosine] ?
0.968

Similarly, O=C(NCC1CCCCN1)c1cc(OCC(F)(F)F)ccc1OCC(F)(F)F (stereo not given) [Flecainide acetate] ?
0.966
